Hey, just so you know, these numbers are from patent US20250382371A1.

Target: T1, human FCRL1 (NCBI accession number: NP_443170.1), transiently expressed on 293T cells (human, UniProt Q96LA6 17-429)
T1 construct: also called Fc receptor-like protein 1; CD307a
T1 sequence: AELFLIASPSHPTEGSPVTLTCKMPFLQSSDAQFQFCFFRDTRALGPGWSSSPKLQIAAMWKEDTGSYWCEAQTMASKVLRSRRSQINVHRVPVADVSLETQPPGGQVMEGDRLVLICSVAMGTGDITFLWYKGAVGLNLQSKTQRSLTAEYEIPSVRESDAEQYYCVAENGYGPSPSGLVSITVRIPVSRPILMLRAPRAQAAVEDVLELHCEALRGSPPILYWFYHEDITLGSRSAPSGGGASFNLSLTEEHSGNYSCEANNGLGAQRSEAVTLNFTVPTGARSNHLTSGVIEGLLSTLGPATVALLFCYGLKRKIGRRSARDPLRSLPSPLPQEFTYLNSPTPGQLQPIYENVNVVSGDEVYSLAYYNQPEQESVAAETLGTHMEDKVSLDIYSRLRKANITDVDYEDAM
Experiment: flow cytometry on 293T cells transiently expressing human FCRL1; apparent KD from EC50 of a 4-parameter fit
pKd: −log10 of the molar value.
RECORDED_METRIC: pKd

BINDER: anti-human FCRL1 mouse monoclonal antibody DK1142 (antibody, V domains shown) VH: QVQLQQSGPELVKPGASVRISCKASGYTFTSYNIHWVKQRPGQGLEWIGWIYPGDGNPKYNEKFKGKTTLTADKSSSTAYMQLSSLTSEDSAVYFCARRIHYYDYFDYWGQGTTLTVSS VL: DVLMTQTPLSLPVSLGDQASISCRSSQSIVHSNGNTYLEWYLQKPGQSPKLLIYKVSNRFSGVPDRFSGSGSGTDFTLKISRVEADDLGVYYCFQGSHVPWTFGGGTKLEIK
READOUT_VALUE: 8.85
//
BINDER: anti-human FCRL1 mouse monoclonal antibody DK610 (antibody, V domains shown) VH: DVLLQESGPGLVKPSQSLSLTCSVAGYSITSDYAWNWLRRFPGNRLEWMGYITYSGSTAYHPSLKGRISFTRDTSQNQVFLQLHSVTTEDSATYYCAQGGTLITTWFLRWGQGTLVTVSA VL: DIVLTQSPASLAVSLGQRATISCRASKSVSTSDYNYMHWYRQKPGQPPKLFIYLASNLESGVPARFSGSGSGTDFTLNIHPVEEEDAATYYCQQSRELPSTFGGGTKLEIK
READOUT_VALUE: 9.40
//
BINDER: anti-human FCRL1 mouse monoclonal antibody DK1141 (antibody, V domains shown) VH: EVRLVESGGRLVQPKGSLRLSCAVSGFTFNTYAMYWIRQAPGKGLEWVARIRSKTNNFATYYADSVKDRFTISRDDSQSMLYLQMNNLKTEDTAMYYCVRDNSGSFDYWGQGTTLTVSS VL: DIVMAQSPSSLAVSVGEKVTMSCKSSQSLLHSSNQKNYLAWYQQKPGQSPNLLIYWASSRESGVPDRFTGSGSGTDFTLTISSVQAEDLATYYCQQYYSYPTFGAGTKLDLK
READOUT_VALUE: 8.80
//
BINDER: anti-human FCRL1 mouse monoclonal antibody DK1166 (antibody, V domains shown) VH: QVQLQQSGPELVKPGASVRISCKASGYTFTSYNIHWVKQRPGQGLEWIGWIYPGDGNTKYNEKFKGKTTLTADKSSSTAYMQLSSLTSEDSAVYFCARRIHYFDYFDYWGQGTTLTLSS VL: DVLMTQTPLSLPVSLGDQVSISCRSGQTIVHSNGNTYLEWYLQKPGQSPKLLIYKVSNRFSGVPDRFSGSGSGTDFTLRISRVEAEDLGVYYCFQGSHVPWTFGGGTKLEIK
READOUT_VALUE: 8.82
